Every entry's value here was drawn from ChEMBL document CHEMBL1154425.

test system: Staphylococcus aureus; assay: Bactericidal activity against multidrug-resistant Staphylococcus aureus 2141 isolate infected iv dosed Swiss mouse assessed per gram of infected soft tissue after 24 hrs; assay type: functional
Residues, ends and D or L forms follow the SMILES beside them.
quantity_measured: LC50 (µmol/g)
Write the answer as a number in µmol/g, unit excluded.

Recorded LC50, per entry:
N=C(N)NCCC[C@H](NC(=O)[C@H](Cc1cnc[nH]1)NC(=O)[C@H](CO)NC(=O)[C@H](Cc1cnc[nH]1)NC(=O)[C@H](Cc1cnc[nH]1)NC(=O)[C@H](CCCCN)NC(=O)[C@H](CCC(=O)O)NC(=O)[C@H](Cc1cnc[nH]1)NC(=O)[C@H](Cc1ccccc1)NC(=O)[C@H](CCCCN)NC(=O)[C@H](CCCNC(=N)N)NC(=O)[C@@H](N)CCCCN)C(=O)NCC(=O)N[C@@H](Cc1ccc(O)cc1)C(=O)O (H-KRKFHEKHHSHRGY-OH)
1
CC(C)C[C@H](NC(=O)[C@H](CC(C)C)NC(=O)[C@H](Cc1ccccc1)NC(=O)[C@H](CC(C)C)NC(=O)[C@H](CC(C)C)NC(=O)[C@@H](N)CC(C)C)C(=O)N[C@@H](CCCCN)C(=O)N[C@@H](CCCCN)C(=O)N[C@@H](CCCNC(=N)N)C(=O)N[C@@H](CCCCN)C(=O)N[C@@H](CCCCN)C(=O)N[C@@H](CCCNC(=N)N)C(=O)N[C@@H](CCCCN)C(=O)N[C@@H](Cc1ccc(O)cc1)C(=O)O (H-LLLFLLKKRKKRKY-OH)
3

What is its LC50 for Staphylococcus aureus? Entry: CC(C)C[C@H](NC(=O)[C@H](CO)NC(=O)[C@H](Cc1ccccc1)NC(=O)[C@H](CC(C)C)NC(=O)[C@H](CC(C)C)NC(=O)[C@H](CCCCN)NC(=O)[C@H](CCCCN)NC(=O)[C@H](Cc1ccccc1)NC(=O)[C@H](CC(C)C)NC(=O)[C@H](CCCNC(=N)N)NC(=O)[C@@H](N)CCCCN)C(=O)N[C@@H](CCCNC(=N)N)C(=O)N[C@@H](CCCCN)C(=O)N[C@@H](Cc1ccc(O)cc1)C(=O)O (H-KRLFKKLLFSLRKY-OH)
1.5

Param item: C[C@H](N)C(=O)N[C@@H](CCCCN)C(=O)N[C@@H](CCCNC(=N)N)C(=O)N[C@@H](Cc1cnc[nH]1)C(=O)N[C@@H](Cc1cnc[nH]1)C(=O)NCC(=O)N[C@@H](Cc1ccc(O)cc1)C(=O)N[C@@H](CCCCN)C(=O)N[C@@H](CCCNC(=N)N)C(=O)N[C@@H](CCCCN)C(=O)N[C@@H](Cc1ccccc1)C(=O)N[C@@H](Cc1cnc[nH]1)C(=O)O (H-AKRHHGYKRKFH-OH)
3
